Listing: Activity of selected compounds
# Tested on: 3T3-L1
# METHOD: Anti-adipogenic activity in mouse 3T3-L1 cells at 20 uM relative to control
# Format: functional
# CONDITION_SET: time 72 hrs
Respond with the bare value in %.

Guide cases for Activity, answers given:
Cc1cccc(C#Cc2ccc(-c3cc(C(=O)O)c4ccccc4n3)cc2)c1
68
CC(C)(C)c1ccc(/C=C/c2ccc(-c3cc(C(=O)O)c4ccccc4n3)cc2)cc1
67
Cc1ccc(C#Cc2ccc(-c3cc(C(=O)O)c4ccccc4n3)cc2)cc1
74

I have this compound here, Cc1ccc(/C=C/c2ccc(-c3cc(C(=O)O)c4ccccc4n3)cc2)cc1 , and I need its recorded Activity.
68

Quick one: Activity for Cc1ccc(/C=C/c2ccc(-c3cc(C(=O)O)c4cc(Cl)ccc4n3)cc2)cc1 ?
76

Activity for COc1ccc(C#Cc2ccc(-c3cc(C(=O)O)c4ccccc4n3)cc2)cc1 ?
69

Which Activity is listed for CC(C)(C)c1ccc(C#Cc2ccc(-c3cc(C(=O)O)c4ccccc4n3)cc2)cc1 ?
69

I'd like to know its Activity. The compound in question is Cc1ccc(/C=C/c2ccc(-c3cc(C(=O)O)c4cc(F)ccc4n3)cc2)cc1
64

====

# Tested on: 3T3-L1
# METHOD: Cytotoxicity against mouse 3T3-L1 cells assessed as cell viability at 20 uM incubated for 48 hrs by MTT assay
# Assay type: toxicity, cell-based
# CONDITION_SET: 3t3-l1, 48 h
MEASURED_ENDPOINT: Activity

COc1ccc(C#Cc2ccc(-c3cc(C(=O)O)c4ccccc4n3)cc2)cc1
Toxic
CC(C)(C)c1ccc(/C=C/c2ccc(-c3cc(C(=O)O)c4ccccc4n3)cc2)cc1
Non-toxic
Cc1ccc(/C=C/c2ccc(-c3cc(C(=O)OC(C)C)c4cc(F)ccc4n3)cc2)cc1
Toxic
CCCCOC(=O)c1cc(-c2ccc(/C=C/c3ccc(C)cc3)cc2)nc2ccc(F)cc12
Toxic

# Activity lookup, item CCCOC(=O)c1cc(-c2ccc(/C=C/c3ccc(C)cc3)cc2)nc2ccc(F)cc12
Toxic

Which Activity value belongs to Cc1ccc(/C=C/c2ccc(-c3cc(C(=O)O)c4cc(F)ccc4n3)cc2)cc1 ?
Non-toxic

Activity lookup needed for COc1ccc2nc(-c3ccc(/C=C/c4ccc(C)cc4)cc3)cc(C(=O)O)c2c1 , thanks.
Non-toxic

// Activity lookup, key: CCOC(=O)c1cc(-c2ccc(/C=C/c3ccc(C)cc3)cc2)nc2ccc(F)cc12
Toxic

Which Activity is listed for Cc1ccc(/C=C/c2ccc(-c3cc(C(=O)O)c4cc(Cl)ccc4n3)cc2)cc1 ?
Toxic

====

# System: 3T3-L1
# METHOD: Cytotoxicity against mouse 3T3-L1 cells assessed as cell viability at 30 uM incubated for 48 hrs by MTT assay
# Type: toxicity, cell-based
# CONDITION_SET: 3t3-l1, 48 h
MEASURED_ENDPOINT: Activity

O=C(O)c1cc(-c2ccc(/C=C/c3ccncc3)cc2)nc2ccccc12
Toxic
CC(C)(C)c1ccc(C#Cc2ccc(-c3cc(C(=O)O)c4ccccc4n3)cc2)cc1
Toxic
Cc1ccc(/C=C/c2ccc(-c3cc(C(=O)O)c4ccccc4n3)cc2)cc1
Toxic
Cc1ccc(/C=C/c2ccc(-c3cc(C(=O)O)c4cc(F)ccc4n3)cc2)cc1
Toxic

====

# METHOD: AUC in Golden Syrian hamster at 100 mg/kg, po measured upto 24 hrs by LC-MS/MS analysis
# Assay type: ADME, organism-based, Mesocricetus auratus
# CONDITION_SET: in vivo
MEASURED_ENDPOINT: AUC at 24 h (ng·h/mL)
Your answer is read as ng·h/mL, so omit the unit and give the number.

Would you mind telling me what AUC at 24 h value was observed for Cc1ccc(/C=C/c2ccc(-c3cc(C(=O)O)c4cc(F)ccc4n3)cc2)cc1 ?
35700

Every entry's value here was drawn from ChEMBL document CHEMBL6114991.
